System: SF-268 CNS
Assay: NCI-60 one-dose screen, 48 h
Conditions: 10 µM unless noted
About 83,000 compounds went through this panel and 20% of them were active in at least one assay; those are over-represented in the sample as a whole. The source made the active and inactive calls. How the source made its calls: active means growth percent below 10; inactive means the rest.
Outcomes: y (active), n (inactive)

- COC(=O)[C@]12CC[C@@H](C)[C@H](C)[C@@H]1C1=CC[C@@H]3[C@@]4(C)C(C=O)=C[C@@](C)(COS(C)(=O)=O)C4[C@H](O)C[C@@]3(C)[C@]1(C)CC2 (stereo partly specified): y
- C[n+]1cccc(CC(=O)NO)c1: n
- Cc1c(C(=O)N[C@@H](Cc2ccccc2)C(=O)C(=O)NCCc2ccccc2)[nH]c2ccccc2c1=O: n
- N[C@@H](CCCCNCC(=O)O)C(=O)O: n
- O=C(/C=C/c1ccc(Cl)nc1)c1ccc(Cl)cc1Cl: n
- COc1ccc(OC)c2c1[nH]c(=O)c1c3ncccc3cn21: n
